endpoint_name: log10 IC50 (log10 of the value in nM)
Recorded IC50 (log10, nM)

Return log10 IC50 measured with DCN1-like protein 1 (Homo sapiens, UniProt Q96GG9) given this compound: O=C(Nc1cccc(C(F)(F)F)c1)NC1CCN(Cc2ccc(F)cc2)CC1
Sequence (Q96GG9 whole entry): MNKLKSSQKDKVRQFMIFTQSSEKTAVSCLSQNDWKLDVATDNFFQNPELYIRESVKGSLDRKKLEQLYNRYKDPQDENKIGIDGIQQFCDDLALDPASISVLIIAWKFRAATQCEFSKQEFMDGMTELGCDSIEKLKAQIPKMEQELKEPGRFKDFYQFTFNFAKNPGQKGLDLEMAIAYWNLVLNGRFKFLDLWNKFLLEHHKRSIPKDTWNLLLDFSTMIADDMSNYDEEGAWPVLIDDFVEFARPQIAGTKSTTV
4.15

Look up log10 IC50 with DCN1-like protein 1 (Homo sapiens, UniProt Q96GG9) for this compound: Cc1cccc(NC(=O)NC2CCN(Cc3ccccc3)CC2)c1
4.64

So what log10 IC50 did CCCS(=O)(=O)N1CCC(N(Cc2ccccc2)C(=O)Nc2cccc(C(F)(F)F)c2)CC1 get with DCN1-like protein 1 (Homo sapiens, UniProt Q96GG9)?
2.87

log10 IC50 of CCCN1CCC(N(CC(C)C)C(=O)Nc2cccc(C(F)(F)F)c2)CC1 on DCN1-like protein 1 (Homo sapiens, UniProt Q96GG9)?
3.76

Lab note: need log10 IC50 for O=C(Nc1cccc(C(F)(F)F)c1)NC1CCN(Cc2ccc(Cl)cc2)CC1 on DCN1-like protein 1 (Homo sapiens, UniProt Q96GG9), anyone have it?
4.40

Can you look up log10 IC50 on DCN1-like protein 1 (Homo sapiens, UniProt Q96GG9) for CC(C)(C)CCN1CCC(N(Cc2ccccc2)C(=O)Nc2cccc(C(F)(F)F)c2)CC1 ?
2.23

// fetch DCN1-like protein 1 (Homo sapiens, UniProt Q96GG9) log10 IC50 for CC(C)(C)N1CCC(N(Cc2ccc3c(c2)OCO3)C(=O)Nc2cccc(C(F)(F)F)c2)CC1
2.49

Can you look up log10 IC50 on DCN1-like protein 1 (Homo sapiens, UniProt Q96GG9) for CCCN1CCC(N(CCC(C)C)C(=O)Nc2cccc(C(F)(F)F)c2)CC1 ?
3.43

// fetch DCN1-like protein 1 (Homo sapiens, UniProt Q96GG9) log10 IC50 for CC(C)(C)CN1CCC(N(Cc2ccccc2)C(=O)Nc2cccc(C(F)(F)F)c2)CC1
2.98

----------
Please respond with reported IC50 for every item in the list.
Please state the figure in µM; there is no need to write the unit.

Form: Entry = CCCN1CCC(N(Cc2ccco2)C(=O)Nc2cccc(C(F)(F)F)c2)CC1 | System = DCN1-like protein 1 (Homo sapiens) | IC50 = ____
0.75

// fetch DCN1-like protein 1 (Homo sapiens) IC50 for O=C(Nc1cccc(C(F)(F)F)c1)NC1CCN(Cc2cccc(F)c2)CC1
16

Query IC50 on DCN1-like protein 1 (Homo sapiens) for O=C(Nc1cccc(C(F)(F)F)c1)N(Cc1ccccc1)C1CCNCC1
21

Lab note: need IC50 with DCN1-like protein 1 (Homo sapiens) for entry Cc1ccccc1CN1CCC(NC(=O)Nc2cccc(C(F)(F)F)c2)CC1 , please look it up.
4

Requested read-out IC50, target or system DCN1-like protein 1 (Homo sapiens), entry CCCCN1CCC(N(Cc2ccc3c(c2)OCO3)C(=O)Nc2cccc(C(F)(F)F)c2)CC1
0.36

Return IC50 measured with DCN1-like protein 1 (Homo sapiens) given this compound: O=C(Nc1cccc(C(F)(F)F)c1)N(Cc1ccccc1)C1CCN(Cc2ccc3c(c2)OCO3)CC1
12

Please tell me: IC50 of CCCN1CCC(N(CCOC)C(=O)Nc2cccc(C(F)(F)F)c2)CC1 , system DCN1-like protein 1 (Homo sapiens)?
21

Give DCN1-like protein 1 (Homo sapiens) IC50 for CC(C)CCN1CCC(N(Cc2ccccc2)C(=O)Nc2cccc(C(F)(F)F)c2)CC1
0.79
